The following binders are listed with their measured pIC50 values.
# targetSystem: hemagglutinin (HA) of low pathogenic influenza A/Mute Swan/Rostock/R901/2006 H7N1 K3141, on virus particles (influenza A virus A/Mute Swan/Rostock/R901/2006 H7N1)
# assayMethodText: SPR
pIC50: −log10 of the molar value. Where no end group is shown, it is not given here.
property: pIC50

ARDFYGYDVFFYAMD-NH2 [PeB^GF (…-amide)]    4.52
ARDFYDYDVFYYAMD-NH2 [PeB (…-amide)]    4.40
